tested on: SW684; test: relative viability vs DMSO control (72 h) (fraction); higher = more viable cells; conditions: 0.1235 µM
METRIC: relative viability
Write the value as a bare number.

*Q* Consider the compound shown here: CCCCCCCCCCCCCCCCCCOP(=O)([O-])OC1CC[N+](C)(C)CC1 [Perifosine] What is its recorded relative viability?
*A* 1.18

*Q* Consider the compound shown here: C#Cc1cccc(Nc2ncnc3cc(OCCOC)c(OCCOC)cc23)c1 [Erlotinib] What is its recorded relative viability?
*A* 1.17

*Q* Consider the compound shown here: N#CCC1(n2cc(-c3ncnc4[nH]ccc34)cn2)CN(C2CCN(C(=O)c3ccnc(C(F)(F)F)c3F)CC2)C1 [Itacitinib] What is its recorded relative viability?
*A* 1.06

*Q* Consider the compound shown here: Cc1nc(Nc2ncc(C(=O)Nc3c(C)cccc3Cl)s2)cc(N2CCN(CCO)CC2)n1 [Dasatinib] What is its recorded relative viability?
*A* 0.739

*Q* Consider the compound shown here: Cc1c(F)cc(C(=O)NC2CC2)cc1-c1ccc(C(=O)NCC(C)(C)C)cn1 [Losmapimod] What is its recorded relative viability?
*A* 1.13

*Q* Consider the compound shown here: C1=N/C2=N/c3ccc(OCCN4CCCC4)c(c3)COC/C=C/COCc3cccc(c3)C(=C1)N2 [Pacritinib] What is its recorded relative viability?
*A* 0.977

*Q* Consider the compound shown here: FC(F)(F)c1ccc(CNc2ccc(Cc3c[nH]c4ncc(Cl)cc34)cn2)cn1 [Pexidartinib] What is its recorded relative viability?
*A* 1.16

*Q* Consider the compound shown here: C[C@H]1Oc2cc(cnc2N)-c2c(nn(C)c2C#N)CN(C)C(=O)c2ccc(F)cc21 [Lorlatinib] What is its recorded relative viability?
*A* 1.15

*Q* Consider the compound shown here: NC(=O)c1cnc2[nH]ccc2c1N[C@@H]1[C@@H]2CC3C[C@H]1C[C@@](O)(C3)C2 [Peficitinib] What is its recorded relative viability?
*A* 1.12

*Q* Consider the compound shown here: CCCS(=O)(=O)N[C@H]1C[C@@H](N(C)c2ncnc3[nH]ccc23)C1 [Abrocitinib] What is its recorded relative viability?
*A* 1.14

*Q* Consider the compound shown here: CCN(CCCOc1ccc2c(Nc3cc(CC(=O)Nc4cccc(F)c4)[nH]n3)ncnc2c1)CCOP(=O)(O)O [Barasertib] What is its recorded relative viability?
*A* 1.06

*Q* Consider the compound shown here: COc1cc2nccc(Oc3ccc(NC(=O)NC4CC4)c(Cl)c3)c2cc1C(N)=O [Lenvatinib] What is its recorded relative viability?
*A* 1.11

*Q* Consider the compound shown here: Cc1ccc(C(=O)OCc2ccc([C@@H](CN)C(=O)Nc3ccc4cnccc4c3)cc2)c(C)c1 [Netarsudil] What is its recorded relative viability?
*A* 0.991

---

tested on: KHOS-NP; assay: relative viability vs DMSO control (72 h) (fraction); higher = more viable cells; conditions: 0.00017 µM
So I've got a bunch of molecules here, and I need their relative viability values.

*Q* Consider the molecule shown here: NC(=O)c1cccc2cn(-c3ccc([C@@H]4CCCNC4)cc3)nc12 What is its recorded relative viability?
*A* 1.05

*Q* Consider the molecule shown here: C[C@H]1Oc2cc(cnc2N)-c2c(nn(C)c2C#N)CN(C)C(=O)c2ccc(F)cc21 What is its recorded relative viability?
*A* 1.09

*Q* Consider the molecule shown here: CCCS(=O)(=O)N[C@H]1C[C@@H](N(C)c2ncnc3[nH]ccc23)C1 What is its recorded relative viability?
*A* 1.05

Entry source: the supplement of paper PMC10883282
